Data provenance: patent EP1202975B1

target: TF-VIIa (Homo sapiens, UniProt P08709); construct: 2nM recombinant human factor VIIa; purchased American Diagnostica, Greenwich CT; host or cells: soluble TF made in house in E. coli; test: TF-VIIa Assay; assay type: biochemical
Sequence (P08709 213-466 limits assumed): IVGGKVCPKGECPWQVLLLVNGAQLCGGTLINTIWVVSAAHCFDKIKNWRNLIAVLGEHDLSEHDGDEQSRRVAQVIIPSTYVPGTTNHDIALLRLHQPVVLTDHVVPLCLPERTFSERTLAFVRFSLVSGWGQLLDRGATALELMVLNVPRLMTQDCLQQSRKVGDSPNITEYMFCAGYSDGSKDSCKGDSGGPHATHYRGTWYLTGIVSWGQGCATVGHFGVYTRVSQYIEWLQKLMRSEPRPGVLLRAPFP
Sequence (P08709 61-212 limits assumed): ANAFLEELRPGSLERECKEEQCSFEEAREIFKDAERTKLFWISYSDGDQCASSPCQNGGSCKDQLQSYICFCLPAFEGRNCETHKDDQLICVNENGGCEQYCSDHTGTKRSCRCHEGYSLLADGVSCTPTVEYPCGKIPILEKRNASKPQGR
Sequence (P13726 33-251 partner limits assumed): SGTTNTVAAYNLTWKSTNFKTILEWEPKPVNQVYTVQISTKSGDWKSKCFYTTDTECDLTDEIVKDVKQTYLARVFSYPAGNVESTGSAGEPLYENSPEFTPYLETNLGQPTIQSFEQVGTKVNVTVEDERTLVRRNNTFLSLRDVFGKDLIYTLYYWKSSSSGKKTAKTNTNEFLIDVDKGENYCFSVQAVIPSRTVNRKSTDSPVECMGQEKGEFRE
Metric name: IC50 or % Inhibition TF-VIIa (30 µM) (%)

| Compound | Metric name | Reported result |
| --- | --- | --- |
| N=C(N)c1ccc(CNC(=O)Cn2c(-c3ccc(Cl)cc3)c(Cl)nc(NCc3ccncc3)c2=O)cc1 | IC50 or % Inhibition TF-VIIa (30 µM) | 33 |
| N=C(N)c1ccc(CNC(=O)Cn2c(-c3ccc(C(F)(F)F)cc3)c(Cl)nc(NC3CCC3)c2=O)cc1 | IC50 or % Inhibition TF-VIIa (30 µM) | 32 |
| CC(C)Nc1nc(Cl)c(-c2cccc([N+](=O)[O-])c2)n(CC(=O)NCc2ccc(C(N)=NO)cc2)c1=O | IC50 or % Inhibition TF-VIIa (30 µM) | 1 |
| N=C(N)c1ccc(CNC(=O)Cn2c(-c3ccccc3)c(Cl)nc(NCc3cccc4ccccc34)c2=O)cc1 | IC50 or % Inhibition TF-VIIa (30 µM) | 38 |
| N=C(N)c1ccc(CNC(=O)Cn2c(-c3ccccc3)c(Cl)nc(NCC3CC3)c2=O)cc1 | IC50 or % Inhibition TF-VIIa (30 µM) | 25 |
| Cc1cccc(Cl)c1CNc1nc(Cl)c(-c2ccccc2)n(CC(=O)NCc2ccc(C(=N)N)cc2)c1=O | IC50 or % Inhibition TF-VIIa (30 µM) | 43 |

[1] N=C(N)c1ccc(CNC(=O)C(Cc2ccccc2)n2c(-c3ccccc3)c(Cl)nc(NCCc3ccccc3)c2=O)cc1 (stereo not drawn)
[2] N=C(N)c1ccc(CNC(=O)Cn2c(-c3ccc(-c4ccccc4)cc3)c(Cl)nc(NCCc3cccc(Cl)c3)c2=O)cc1
[3] N=C(N)c1ccc(CNC(=O)Cn2c(-c3ccc(-c4ccccc4)cc3)c(Cl)nc(NCCc3cccnc3)c2=O)cc1
[4] CCc1c(Cl)nc(NCCc2cccc(Cl)c2)c(=O)n1CC(=O)NCc1ccc(C(=N)N)cc1
**Query** Rank items: key IC50 or % Inhibition TF-VIIa (30 µM), increasing. Would you mind listing the labels in the order asked for?
**Result** 4, 2, 3, 1
(4: 4%, 2: 10%, 3: 15%, 1: 30%)

* * *

Each entry below carries its measured IC50 or % Inhibition Factor Xa (30 µM), system: Human factor Xa (Homo sapiens, UniProt P00742).
Sequence (P00742 235-488 limits assumed): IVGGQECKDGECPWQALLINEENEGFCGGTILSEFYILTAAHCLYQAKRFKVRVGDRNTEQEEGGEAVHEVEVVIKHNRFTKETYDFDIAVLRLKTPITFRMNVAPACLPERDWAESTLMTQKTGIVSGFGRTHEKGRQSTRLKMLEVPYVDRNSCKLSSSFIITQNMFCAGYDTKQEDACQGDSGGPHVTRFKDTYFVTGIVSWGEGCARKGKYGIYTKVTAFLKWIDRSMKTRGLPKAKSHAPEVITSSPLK
Sequence (P00742 41-179 limits assumed): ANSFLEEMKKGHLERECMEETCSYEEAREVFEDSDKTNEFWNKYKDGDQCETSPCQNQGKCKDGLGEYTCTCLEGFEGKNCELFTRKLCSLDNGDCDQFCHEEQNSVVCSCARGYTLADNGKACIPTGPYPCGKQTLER
Metric name: IC50 or % Inhibition Factor Xa (30 µM) (%)

Reference set, count: 3
| Compound | Tested target | Metric name | Units symbol | Reported result |
| --- | --- | --- | --- | --- |
| N=C(N)c1ccc(CNC(=O)Cn2c(-c3ccsc3)c(Cl)nc(NC3CCC3)c2=O)cc1 | Human factor Xa (Homo sapiens, UniProt P00742) | IC50 or % Inhibition Factor Xa (30 µM) | % | 0 |
| CCCC(CCC)Nc1nc(Cl)c(-c2ccccc2)n(CC(=O)NCc2ccc(C(=N)N)cc2)c1=O | Human factor Xa (Homo sapiens, UniProt P00742) | IC50 or % Inhibition Factor Xa (30 µM) | % | 0 |
| CC(C)Nc1nc(Cl)c(-c2cccc(N)c2)n(CC(=O)NCc2ccc(C(=N)N)c(F)c2)c1=O | Human factor Xa (Homo sapiens, UniProt P00742) | IC50 or % Inhibition Factor Xa (30 µM) | % | 0 |

[P] N=C(N)c1ccc(CNC(=O)Cn2c(-c3cccc(N)c3)c(Cl)nc(NC3CC3)c2=O)c(F)c1
[Q] N=C(N)c1ccc(CNC(=O)Cn2c(-c3ccccc3)c(Cl)nc(NCc3cc(Cl)ccc3Cl)c2=O)cc1
**Query** Kindly identify which of P and Q has the larger recorded IC50 or % Inhibition Factor Xa (30 µM) value. Answer by quoting the chosen item's label.
**Result** P
